- Method summary: Drug induced arrhythmia in rats: ECG changes and LD50
- Format: in vivo
- Details: in vivo, iv; i.v. infusion, rat, stepwise increased doses
Metric: LD50 (mg/kg)
Dear colleague, please return just the value in mg/kg, with no unit written.

Using the record for NC1CCC(c2ccccc2)(c2ccccc2)C1 (stereo not shown) , report its LD50.
58
